Reported apparent KD of MS2 coat protein by item:
Tested on: MS2 coat protein
Assay: apparent KD of MS2 coat protein; designed switch direction (-1 OFF switch, 1 ON switch): -1; higher = weaker reporter binding
Conditions: input ligand: none

{"columns": ["SEQ_STRING", "apparent KD of MS2 coat protein [µM]"],
 "data": [
  ["AGCAGACGAGGAUAUAGAUUUAGAUACAUGAGGAUCACCCAUGUAUACAUGUAUUUAGAUUUAGAAGGCGUCUGCU [E5/14-A1] (Eterna round: R97, puzzle: Exclusion 5)", 1.34],
  ["UAUGGUUAAGUCAGGAUAUACUAAUAGAAAUCUGAGUAGAAGGGACAUGAGGAUCACCCAUGUAUGGUAGUGUU [Ex4 #58] (Eterna round: R97, puzzle: Brourd's mod of Exclusion 4)", 0.0552],
  ["UAUUAGCAAGUAAGGUCCCACAUGAGGAUCACCCAUGUGCUCGUCUCCUCAGGUACGGAGCGGAAACUCCCGAUAUG [Sensor-V1 #92] (Eterna round: R97, puzzle: Sensor, turn-off variant 1)", 0.102],
  ["UGGCUACAUGAGGAUCACCCAUGUCAGGAUAUGCCGUUAAAUUAACAUCAACAUACGGGUAGAAGGGACAGCGU [1st #6] (Eterna round: R97, puzzle: Exclusion 1)", 0.0417],
  ["AAAGUAGACCUUGAAGCAUCGUAAACAUGAGGAUCACCCAUGUAGGAUAUGGGUAGCUAUGCUAGCCAGAAGGAUGUGUGGUGA [Eternabot solution 16] (Eterna round: R96, puzzle: Exclusion NG 3)", 0.0544],
  ["AUUUUGUGAGGAUAUGUGGCUUCGAUCGUGAAAUCGAGGCUACAGAAGGCACAUGAGGAUCACCCAUGUUCCUA [salish99_ex4_r4_117] (Eterna round: R97, puzzle: Exclusion 4)", 0.0196],
  ["UCCAAGUUUGUAGGAUAUACUCUCCUUUGGAGAGUAGAAGGACAUGAGGAUCACCCAUGUUGUAUAAAUUUGGGAUGUUCCUCG [random3] (Eterna round: R96, puzzle: Exclusion NG 1)", 0.0918],
  ["GGAAGAGAGAUAGGAUAUCAGAGGAAGAUGGUGAGAGAGACAUGAGGAUCACCCAUGUGAAGGAAUGAGAAGGGUCAGAAGGAA [EXNG2 V2 h] (Eterna round: R96, puzzle: Exclusion NG 2)", 0.101],
  ["UGCCCAGCAGGAUAUACAUGAGGAUCACCCAUGUCGAUUCAGUACGACUUAGUGCAACGUAGAAGGGCUGGGCC [Eternabot (L1) Solution 84] (Eterna round: R97, puzzle: Exclusion 3)", 0.0395],
  ["GCUGGUCGAGGAUAUGCAUUCGUGCUUCGGCACGUAAGGUCACAUGAGGAUCACCCAUGUAGAAGGUGACCAGC [E2/6-B1] (Eterna round: R97, puzzle: Exclusion 2)", 0.0178],
  ["UGCCUAGCAGGAUAUGCCCGGGAUAACAUGAGGAUCACCCAUGUGACCGAUUGAUAUCCUGCAGAAGGGCUAGGGA [JL-EX5-4.10 ViennaUCT mod] (Eterna round: R97, puzzle: Exclusion 5)", 0.0167],
  ["CUGUUUUUCGCAGGAUAUGCUCCUCCAUUAUUUGCAGAAGGGCGUUAAACAUGAGGAUCACCCAUGUAUGGUAAUGACUAUUUC [JR_ExcNG1_Sub065] (Eterna round: R96, puzzle: Exclusion NG 1)", 0.0407],
  ["UAAAUAAAUGUAGGAUAUCUGCACGAUUAGUGCAGAGAAGGACAUGAGGAUCACCCAUGUAUAGUAGCUUCGGCUACAAAUAAU [ENG1-C1] (Eterna round: R96, puzzle: Exclusion NG 1)", 0.0712],
  ["GUCGUGCGGCUUUGCUGUGCGGGUACAUGAGGAUCACCCAUGUAGGAUAUGGUACGCUUUGCGUGCCAGAAGGGCGUGCGUUGG [salish99_ExNG3_r04_008] (Eterna round: R96, puzzle: Exclusion NG 3)", 0.0366],
  ["CCUAGUUGGUAAGGAUAUCCUACACUAUUCUGACCCGUGCAAGCUACAUGAGGAUCACCCAUGUGGGAGAAGGUGCGUCAACGU [Design 10] (Eterna round: R96, puzzle: Exclusion NG 2)", 0.0238],
  ["CAUAGUUACUCAGGAUAUCAUACAUGAGGAUCACCCAUGUAAUAAAUGAGAAUUUCGAAUGUAUAUGAGAAGGGAGAAAUCUAC [Ostracism 59 - Jieux - Exclusion NG 2] (Eterna round: R96, puzzle: Exclusion NG 2)", 0.0226],
  ["AAAGCUGCAGGAUAUGCAUGUGUGGACAUGAGGAUCACCCAUGUGAGCGUAUCAUGUCGAGCAGAAGGGCAGUAAA [Atquer] (Eterna round: R97, puzzle: Exclusion 5)", 0.63],
  ["UAGCUUUAUGUUAGGAUAUUCGCGCAUAUACUGCCGAAGAAGGAACAUGAGGAUCACCCAUGUACACGCCUAUG [Eternabot (L1) Solution 60] (Eterna round: R97, puzzle: Brourd's mod of Exclusion 4)", 0.0209],
  ["CUUUAGCAGGUAGGAUAUACGAAGUGUCGGCGAGUAGAAGGACCUGCGAUCCACUUGAGGAUCACCCAAGUUCGCAGGAGAACA [Mutated MS2 EX1.10] (Eterna round: R96, puzzle: Exclusion NG 1)", 0.0508]
]}
